Tested Target: purified recombinant human PARP (Homo sapiens)
Construct: purchased Trevigan (Gaithersburg, Md.)
Sequence (P09874 whole entry): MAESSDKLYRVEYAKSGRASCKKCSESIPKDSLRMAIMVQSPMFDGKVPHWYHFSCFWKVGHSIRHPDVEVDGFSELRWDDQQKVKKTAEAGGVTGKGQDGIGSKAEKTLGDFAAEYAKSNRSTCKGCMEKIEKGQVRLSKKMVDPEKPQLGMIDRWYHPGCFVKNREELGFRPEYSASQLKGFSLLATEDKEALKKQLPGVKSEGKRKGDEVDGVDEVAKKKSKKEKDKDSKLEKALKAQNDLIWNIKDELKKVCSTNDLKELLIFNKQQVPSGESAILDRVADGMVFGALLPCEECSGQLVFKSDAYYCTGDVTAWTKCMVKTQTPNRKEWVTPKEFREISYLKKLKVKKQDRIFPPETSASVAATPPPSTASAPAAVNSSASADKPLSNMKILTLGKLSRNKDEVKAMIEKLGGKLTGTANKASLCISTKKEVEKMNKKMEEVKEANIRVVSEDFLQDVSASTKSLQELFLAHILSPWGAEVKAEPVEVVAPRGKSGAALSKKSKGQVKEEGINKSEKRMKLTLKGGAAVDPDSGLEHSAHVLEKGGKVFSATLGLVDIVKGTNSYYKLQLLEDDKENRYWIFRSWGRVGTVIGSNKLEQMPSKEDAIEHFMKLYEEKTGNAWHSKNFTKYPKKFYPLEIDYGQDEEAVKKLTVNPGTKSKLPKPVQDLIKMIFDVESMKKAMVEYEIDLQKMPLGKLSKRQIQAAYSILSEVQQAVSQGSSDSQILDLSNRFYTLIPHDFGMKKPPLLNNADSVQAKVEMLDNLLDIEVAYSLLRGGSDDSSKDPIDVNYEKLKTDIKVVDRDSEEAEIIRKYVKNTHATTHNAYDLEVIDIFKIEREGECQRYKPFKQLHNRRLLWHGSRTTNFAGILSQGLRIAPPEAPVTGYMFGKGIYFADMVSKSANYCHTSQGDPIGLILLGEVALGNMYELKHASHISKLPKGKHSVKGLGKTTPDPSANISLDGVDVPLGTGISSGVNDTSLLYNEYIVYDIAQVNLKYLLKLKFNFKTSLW
Assay Overview: PARP enzyme assay (IC50)
Format: biochemical
Assay Context: approximate IC50 values, [3H]NAD, read-out: IC50
Assay Readout: IC50
Hey, just the number and the unit after it is fine.

Worked examples follow.
>>> df
                                   compound                             tested_target  recorded_result
0  Nc1ccc(C2CNC(=O)c3cccc4[nH]cc2c34)cc1 (centres unmarked)  purified recombinant human PARP (Homo sapiens)           172 nM
1      O=C1NN=C(CN2CCOCC2)c2c[nH]c3cccc1c23  purified recombinant human PARP (Homo sapiens)            37 nM
2          O=C1NCCn2c(-c3cccnc3)nc3cccc1c32  purified recombinant human PARP (Homo sapiens)           168 nM

INPUT: Consider the compound O=C1NN=C(CN2CCN(c3ccccn3)CC2)c2c[nH]c3cccc1c23 [drawing 106] and give its measured IC50.
OUTPUT: 37 nM

INPUT: Consider the compound CN(C)CC(=O)Nc1ccc2[nH]c(=O)c3ccccc3c2n1 and give its measured IC50.
OUTPUT: 98 nM

INPUT: Consider the compound O=C1NC=C(Br)c2c[nH]c3cccc1c23 and give its measured IC50.
OUTPUT: 61 nM

INPUT: Consider the compound O=C1NN=Cc2c(Br)n(Cc3ccccc3)c3cccc1c23 and give its measured IC50.
OUTPUT: 20000 nM

INPUT: Consider the compound CCN(CC)CCNC(=O)c1cccc(-c2nc3cccc4c3n2CCNC4=O)c1 and give its measured IC50.
OUTPUT: 449 nM
